This collection of values is drawn from patent US9175003B2.

Molecular target: human GLP-1 receptor (Homo sapiens (Human))
Sequence (P43220 24-463): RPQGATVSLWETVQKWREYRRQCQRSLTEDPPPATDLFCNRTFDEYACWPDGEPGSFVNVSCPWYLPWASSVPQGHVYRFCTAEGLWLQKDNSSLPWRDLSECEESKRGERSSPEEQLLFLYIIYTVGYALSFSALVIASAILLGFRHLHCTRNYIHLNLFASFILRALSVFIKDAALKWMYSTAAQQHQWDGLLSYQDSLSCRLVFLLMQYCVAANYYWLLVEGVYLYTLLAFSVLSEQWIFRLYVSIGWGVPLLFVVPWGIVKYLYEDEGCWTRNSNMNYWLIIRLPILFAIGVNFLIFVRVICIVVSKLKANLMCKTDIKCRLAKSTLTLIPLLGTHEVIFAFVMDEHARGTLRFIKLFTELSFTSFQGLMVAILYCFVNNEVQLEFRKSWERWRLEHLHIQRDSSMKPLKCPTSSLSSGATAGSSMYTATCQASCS
Conditions: read-out: Mean EC50; cAMP, HTRF detection, 30 min at 37° C., HEK-293 cells expressing cloned human GLP-1 receptor
Task for the reader: assign each of the following molecules its reported pEC50.
Just the number, please; pEC50 means minus log10 of the concentration in mol/L.

Quick one: pEC50 of `CC[C@@H](c1ccccc1)N1Cc2cc3c(cc2C[C@H]1C(=O)N[C@@H](Cc1ccc(-c2ccnc(C)c2C)cc1)C(=O)O)OC[C@H](c1ccc(OC2CCCC2)cc1)O3` ?
6.93

Query `Cc1nc(C(=O)N2Cc3cc4c(cc3C[C@H]2C(=O)N[C@@H](Cc2ccc(-c3ccnc(C)c3C)cc2)C(=O)O)OC[C@H](c2ccc(OCc3c(Cl)cccc3Cl)cc2)O4)c(C)o1` next
7.35

Now consider `Cc1nccc(-c2ccc(C[C@H](NC(=O)[C@@H]3Cc4cc5c(cc4CN3C(=O)Nc3cnccn3)O[C@@H](c3ccc(OCc4ccc(Cl)c(Cl)c4)cc3)CO5)C(=O)O)cc2)c1C` .
6.46

Also need `CCOc1ccc([C@H]2COc3cc4c(cc3O2)CN([C@@H](CC)c2ccccc2)[C@H](C(=O)N[C@@H](Cc2ccc(-c3ccnc(C)c3C)cc2)C(=O)O)C4)cc1` , thanks.
6.27

Same thing, different molecule: `Cc1nc(C(=O)N2Cc3cc4c(cc3C[C@H]2C(=O)N[C@@H](Cc2ccc(-c3ccnc(C)c3C)cc2)C(=O)O)OC[C@H](c2ccc(OCc3ccc(Cl)c(Cl)c3)cc2)O4)co1`
7.51
